assayed.system: porcine kidney trehalase (Sus scrofa, UniProt I3LIR5)
Construct: trehalases from porcine kidney and insects have different recognition requirements; from tissue; host or cells: porcine kidney
assay.explanation: Trehalase inhibition, coupled assay with glucose-6-phosphate dehydrogenase and hexokinase (porcine enzyme)
Assay type: biochemical
assay.conditions: trehalose fixed close to Km (2.5 mM); 30 °C; mean ± SE of three independent experiments
Parameter: pIC50. Scope: all listed entries.
pIC50 here is simply -log10 of the concentration when that concentration is written in mol/L.

INSERT INTO assay_data (mol, measured_result) VALUES
  ('NC(=O)N1C[C@H](O)[C@@H](O)[C@H](O)[C@H]1CO', 3.81),
  ('CCC[C@H]1N[C@H](CO)[C@@H](O)[C@H](O)[C@H]1O', 3.96);

Then this compound:
[in] Item `CCCCCCCCN1C[C@@H](O)[C@H](O)[C@H]1CO` with porcine kidney trehalase (Sus scrofa, UniProt I3LIR5) - pIC50?
[out] 3.27

---

assayed.system: porcine kidney trehalase (Sus scrofa, UniProt I3LIR5)
Construct: trehalases from porcine kidney and insects have different recognition requirements; from tissue; host or cells: porcine kidney
Sequence (I3LIR5 24-583): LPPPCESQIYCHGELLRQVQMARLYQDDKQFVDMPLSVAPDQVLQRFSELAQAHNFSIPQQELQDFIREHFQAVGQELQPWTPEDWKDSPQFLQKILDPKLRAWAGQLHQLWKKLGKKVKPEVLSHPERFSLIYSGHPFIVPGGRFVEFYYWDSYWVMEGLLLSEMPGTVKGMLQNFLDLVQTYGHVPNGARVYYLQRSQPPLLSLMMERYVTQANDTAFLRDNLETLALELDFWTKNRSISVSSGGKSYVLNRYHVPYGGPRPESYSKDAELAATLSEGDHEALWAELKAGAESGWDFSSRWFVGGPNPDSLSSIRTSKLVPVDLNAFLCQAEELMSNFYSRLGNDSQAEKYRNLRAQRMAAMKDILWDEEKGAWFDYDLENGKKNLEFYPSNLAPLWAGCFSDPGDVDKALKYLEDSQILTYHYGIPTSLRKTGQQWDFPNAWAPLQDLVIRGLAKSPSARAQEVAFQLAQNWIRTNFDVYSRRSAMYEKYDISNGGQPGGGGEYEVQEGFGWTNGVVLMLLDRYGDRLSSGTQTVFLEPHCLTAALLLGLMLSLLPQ
assay.explanation: Trehalase inhibition, coupled assay with glucose-6-phosphate dehydrogenase and hexokinase (porcine enzyme)
Type: biochemical
assay.conditions: screening at fixed concentration of 1 mM
measurement.type: inhibitory activity against porcine trehalase (in words)

Reference set (5 entries):
INSERT INTO results (compound, measured_result) VALUES
  ('CCC[C@@H]1[C@H](O)[C@@H](O)[C@H](O)[C@@H](CO)N1C(=O)NCc1ccccc1 [Compound 10]', 'no activity'),
  ('CCC[C@H]1N[C@H](CO)[C@@H](O)[C@@H]1O [Compound 14]', 'no activity'),
  ('CCCCCCCCN1C[C@@H](O)[C@H](O)[C@H]1CO [Compound 20]', 'active'),
  ('CCC[C@H]1N[C@H](CO)[C@@H](O)[C@H](O)[C@H]1O [Compound 13]', 'active'),
  ('CCC[C@@H]1[C@@H](O)[C@H](O)[C@@H](CO)N1C(N)=O [Compound 16]', 'no activity');

Attention now shifts to the item below.
[in] # query: inhibitory activity against porcine trehalase (in words) of entry NC(=O)N1C[C@H](O)[C@@H](O)[C@H](O)[C@H]1CO [Compound 12]
[out] active
